# Read-out: Vascular cell adhesion molecule 1 (VCAM1), VCAM1 (gene 7412)
# assay: BSK_4H_VCAM1: BioMAP Diversity Plus: 4H Assay for Vascular cell adhesion molecule 1 (VCAM1) Biomarker Activity (AID 2283033)
# settings: primary human endothelial cells (HUVEC); actives raise or lower the signal
Activity calls are given as the source filed them. The calls were made as follows: active = hit-call score of the fitted dose curve at least 0.9, where 1 is the maximum; inactive = score below 0.9.
Form entry, call: pick from y = active, n = inactive

Worked cases, answers included:
>  <compound>
Cc1cccc(O)c1C

>  <assigned class>
n

$$$$
>  <compound>
Cn1cc[nH]c1=S

>  <assigned class>
n

$$$$
>  <compound>
Cc1nccn1-c1ccc(Sc2cccc(C3(C(N)=O)CCOCC3)c2)cc1

>  <assigned class>
y

$$$$
>  <compound>
CCCCCCOC(=O)CC(CC(=O)OCCCCCC)(OC(=O)CCC)C(=O)OCCCCCC

>  <assigned class>
n

$$$$

Q: Just curious, what result did `O=C(O)[C@H](O)[C@@H](O)C(=O)O` get here?
Ans: n

Q: Just curious, what result did `CCCc1ccccc1` get here?
Ans: n

Q: Just curious, what result did `CCCCN1C(=O)[C@@H]([C@H](O)C2CCCCC2)NC(=O)C12CCN(Cc1ccc(Oc3ccc(C(=O)O)cc3)cc1)CC2` get here?
Ans: n

Q: Just curious, what result did `CCCCCCCCCCCCCCCCOS(=O)(=O)O` get here?
Ans: n

Q: Just curious, what result did `NC(N)=O` get here?
Ans: n

Q: Just curious, what result did `OCCNCCO` get here?
Ans: n

The measurements presented in this section are drawn from PubChem BioAssay (EPA / NIEHS).
